Record form. Attribute: inhibition at 0.2 µM. Fill in for each entry.
Tested Target: UniProtKB Q1A7N1
Sequence (Q1A7N1 1-1104): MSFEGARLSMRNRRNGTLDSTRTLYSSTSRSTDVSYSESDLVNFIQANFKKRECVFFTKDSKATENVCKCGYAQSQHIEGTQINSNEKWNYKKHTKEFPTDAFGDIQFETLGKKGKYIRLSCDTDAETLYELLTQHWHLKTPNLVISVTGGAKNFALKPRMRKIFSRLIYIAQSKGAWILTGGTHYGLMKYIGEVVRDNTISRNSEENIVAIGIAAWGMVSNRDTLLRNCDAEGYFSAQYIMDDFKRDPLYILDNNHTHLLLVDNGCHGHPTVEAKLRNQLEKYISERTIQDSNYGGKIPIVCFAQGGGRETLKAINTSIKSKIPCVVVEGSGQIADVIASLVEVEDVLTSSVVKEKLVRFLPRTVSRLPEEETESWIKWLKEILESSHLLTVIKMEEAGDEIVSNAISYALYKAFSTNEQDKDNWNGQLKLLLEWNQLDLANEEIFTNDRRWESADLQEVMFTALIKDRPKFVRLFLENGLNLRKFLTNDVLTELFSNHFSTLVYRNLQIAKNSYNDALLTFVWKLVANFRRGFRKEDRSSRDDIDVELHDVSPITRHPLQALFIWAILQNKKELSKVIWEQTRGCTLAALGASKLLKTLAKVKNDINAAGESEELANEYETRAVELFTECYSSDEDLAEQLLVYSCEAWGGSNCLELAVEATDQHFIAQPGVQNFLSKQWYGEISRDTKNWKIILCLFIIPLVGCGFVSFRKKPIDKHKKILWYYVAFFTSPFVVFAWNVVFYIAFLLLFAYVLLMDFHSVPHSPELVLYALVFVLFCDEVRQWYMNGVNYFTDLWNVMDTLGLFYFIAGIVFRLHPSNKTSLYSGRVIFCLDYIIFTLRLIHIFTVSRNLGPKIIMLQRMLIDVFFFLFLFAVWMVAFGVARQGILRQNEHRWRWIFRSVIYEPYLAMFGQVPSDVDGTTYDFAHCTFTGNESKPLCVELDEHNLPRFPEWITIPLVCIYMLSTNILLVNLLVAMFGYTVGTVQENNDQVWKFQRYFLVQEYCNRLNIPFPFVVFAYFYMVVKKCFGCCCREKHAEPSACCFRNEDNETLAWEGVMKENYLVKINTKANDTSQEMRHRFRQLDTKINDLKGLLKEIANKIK
Assay Name: In Vitro Canine TRPM8 Functional Assay (Ca2+ fluorescence, icilin activation)
Type: cell-based
Condition Parameters: 0.2 μM compound; HEK293 cells stably expressing canine TRPM8, icilin activation; read-out: % Inh @ 0.2
Answer with a number only, understood to be in %.

Give the reported value of inhibition at 0.2 µM for this record: CCS(=O)(=O)N(Cc1ccnc(F)c1)c1sc2ccccc2c1C(C)(C)O [Compound 836]
96

Give the reported value of inhibition at 0.2 µM for this record: Cc1c(N(CCC2CC2)S(=O)(=O)c2ccc(-c3nnn[nH]3)nc2)sc2ccccc12 [Compound 804]
102

Give the reported value of inhibition at 0.2 µM for this record: Cc1c(N(CCCF)S(=O)(=O)c2ccc(F)c(F)c2)sc2ccccc12 [Compound 831]
91

Give the reported value of inhibition at 0.2 µM for this record: CC(=O)c1c(N(CCCF)S(=O)(=O)c2ccccc2)sc2ccccc12 [Compound 833]
102

Give the reported value of inhibition at 0.2 µM for this record: Cc1c(N(CCF)S(=O)(=O)c2ccc(F)c(F)c2)sc2ccccc12 [Compound 841]
55

Give the reported value of inhibition at 0.2 µM for this record: Cc1c(N(CCCCC(F)(F)F)S(=O)(=O)c2ccc(-c3nn(C)c(=O)[nH]3)cc2)sc2ccccc12 [Compound 812]
103

Give the reported value of inhibition at 0.2 µM for this record: Cc1c(N(CCCCC(F)(F)F)S(=O)(=O)c2ccc(-c3nnn[nH]3)nc2)sc2ccccc12 [Compound 806]
102

Give the reported value of inhibition at 0.2 µM for this record: CCS(=O)(=O)N(Cc1cc(F)c(F)c(OC)c1F)c1sc2ccccc2c1C(C)(C)O [Compound 802]
101
